All figures here come from paper PMC9137581.

TARGET_OR_SYSTEM: mushroom tyrosinase (Agaricus bisporus, UniProt C7FF04)
Construct: purchased Sigma-Aldrich
Sequence (C7FF04 1-392): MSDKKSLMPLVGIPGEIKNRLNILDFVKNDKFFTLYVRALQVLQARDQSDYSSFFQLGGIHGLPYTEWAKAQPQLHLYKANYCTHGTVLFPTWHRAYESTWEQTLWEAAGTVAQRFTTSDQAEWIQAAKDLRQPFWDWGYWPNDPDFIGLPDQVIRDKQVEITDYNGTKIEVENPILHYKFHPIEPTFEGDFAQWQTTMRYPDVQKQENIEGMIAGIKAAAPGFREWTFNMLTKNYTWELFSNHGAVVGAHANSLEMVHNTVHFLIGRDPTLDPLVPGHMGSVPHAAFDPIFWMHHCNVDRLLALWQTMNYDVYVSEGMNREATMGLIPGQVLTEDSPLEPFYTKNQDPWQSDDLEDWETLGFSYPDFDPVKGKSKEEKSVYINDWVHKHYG
ASSAY_PROTOCOL: Kinetic studies of mushroom tyrosinase inhibition (L-DOPA; Lineweaver–Burk and Dixon plots)
Format: biochemical
CONDITIONS: Lineweaver–Burk plots
ATTRIBUTE_MEASURED: mode of action (type of inhibition)

>>> recorded_measurement("O=C1/C(=C/c2ccc(O)c(O)c2)SC(=S)N1c1ccccc1 [Analog 2]")
"competitive"
>>> recorded_measurement("O=C1/C(=C/c2ccc(O)cc2)SC(=S)N1c1ccccc1 [Analog 1]")
"competitive"
>>> recorded_measurement("COc1ccc(/C=C2\\SC(=S)N(c3ccccc3)C2=O)cc1O [Analog 6]")
"competitive"
>>> recorded_measurement("O=C1/C(=C/c2ccc(O)cc2O)SC(=S)N1c1ccccc1 [Analog 3]")
"competitive"
